The reader will find reported pIC50 values listed item by item below.
- EXPERIMENTAL_TARGET: Gamma-secretase
- MEASUREMENT_DESCRIPTION: Inhibition of gamma-secretase activity in H4 human neuroglioma cells by measuring amyloid beta production
- Format: cell-based
Here pIC50 is given on a logarithmic scale as minus log10 of the concentration in mol/L.

CCCCN(C)C(=O)[C@H](CC1CCCCC1)NC(=O)[C@H](CC(C)C)NC(=O)Cc1cccc(Cl)c1
7.28
CCCCN(C)C(=O)[C@H](CC1CCCCC1)NC(=O)[C@H](CC(C)C)NC(=O)Cc1cccc(C)c1
6.34
CCCCN(C)C(=O)[C@H](CC1CCCCC1)NC(=O)[C@H](CC(C)C)NC(=O)Cc1cccc(F)c1
7.70

Query: pIC50; subject: CCCCN(C)C(=O)[C@H](CC1CCCCC1)NC(=O)[C@H](CC(C)C)NC(=O)Cc1cc(OC)cc(OC)c1
6.10

Query: pIC50; subject: CC(C)CC[C@@H](O)[C@H](CC1CCCCC1)NC(=O)[C@H](CC(C)C)NC(=O)Cc1ccccc1
5.92
